The reader will find reported Ki values listed item by item below.
target: human serotonin 5-HT7bR (Homo sapiens); assay: Radioligand binding, [3H]-5-CT displacement; details: read-out: K i (5-HT7R)
Quick note: give the figure in nM, leave out the unit.

Solved cases below.
compoundStructureString: CCn1cncc1-c1c[nH]c2ccc(C)cc12
testTarget: human serotonin 5-HT7bR (Homo sapiens)
reportedEndpoint: Ki
quantityUnit: nM
assayValue: 44
--
compoundStructureString: CCn1cncc1-c1c[nH]c2ccc(Cl)cc12
testTarget: human serotonin 5-HT7bR (Homo sapiens)
reportedEndpoint: Ki
quantityUnit: nM
assayValue: 42
--
compoundStructureString: CCn1cncc1-c1c[nH]c2ccc(I)cc12
testTarget: human serotonin 5-HT7bR (Homo sapiens)
reportedEndpoint: Ki
quantityUnit: nM
assayValue: 6

response.value for `CCn1cncc1-c1c[nH]c2ccc(Br)cc12` (field: Ki) = 20

response.value for `CCn1cncc1-c1c[nH]c2ccc(OC)cc12.Cl` (field: Ki) = 30

###

assay: Pharmacokinetics after i.p. administration in mice; format: in vivo, CD-1 mice; settings: male, CD-1, mouse, plasma, ip, i.p. 5 mg/kg
reportedEndpoint: Vd/F (L/kg)
Quick note: give the figure in L/kg, leave out the unit.

response.value for CCn1cncc1-c1c[nH]c2ccc(I)cc12 [1o] (field: Vd/F) = 46.6

###

biological target: CYP3A4 (Homo sapiens, UniProt P08684); assay: biochemical
Sequence (P08684 whole entry): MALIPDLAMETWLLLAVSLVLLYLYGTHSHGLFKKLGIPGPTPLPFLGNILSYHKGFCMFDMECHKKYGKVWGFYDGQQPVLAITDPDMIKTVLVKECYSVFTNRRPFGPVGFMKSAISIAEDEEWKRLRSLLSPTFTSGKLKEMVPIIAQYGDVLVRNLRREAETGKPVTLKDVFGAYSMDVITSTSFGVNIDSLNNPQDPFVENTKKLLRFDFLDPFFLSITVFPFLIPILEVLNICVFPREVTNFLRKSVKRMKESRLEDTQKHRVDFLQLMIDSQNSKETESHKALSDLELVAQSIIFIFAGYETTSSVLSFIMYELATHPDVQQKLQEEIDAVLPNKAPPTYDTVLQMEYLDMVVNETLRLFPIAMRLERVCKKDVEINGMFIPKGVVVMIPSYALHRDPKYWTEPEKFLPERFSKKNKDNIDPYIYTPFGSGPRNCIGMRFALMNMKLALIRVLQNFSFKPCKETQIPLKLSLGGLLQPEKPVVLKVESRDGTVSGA
The reader will find reported IC50 values listed item by item below.
Quick note: give the figure in nM, leave out the unit.

response.value for CCn1cncc1-c1c[nH]c2ccc(I)cc12 [1o] (field: IC50) = 170

response.value for CCn1cncc1-c1c[nH]c2ccc(OC)cc12.Cl [1e] (field: IC50) = 270

###

target: human serotonin 5-HT7bR (Homo sapiens); assay: Radioligand binding, [3H]-5-CT displacement

compoundStructureString: CCn1cncc1-c1c[nH]c2cccc(Br)c12
binding to 5-HT7R in words: low affinity
--
compoundStructureString: CCn1cncc1-c1c[nH]c2cc(Br)ccc12
binding to 5-HT7R in words: low affinity

###

The reader will find reported Ki values listed item by item below.
target: human serotonin 5-HT7bR (Homo sapiens, UniProt P34969); test: Radioligand binding, [3H]-5-CT displacement; conditions: Fig. 2; read-out: pKi 5-HT7 (converted)
Sequence (P34969 1-432 limits assumed): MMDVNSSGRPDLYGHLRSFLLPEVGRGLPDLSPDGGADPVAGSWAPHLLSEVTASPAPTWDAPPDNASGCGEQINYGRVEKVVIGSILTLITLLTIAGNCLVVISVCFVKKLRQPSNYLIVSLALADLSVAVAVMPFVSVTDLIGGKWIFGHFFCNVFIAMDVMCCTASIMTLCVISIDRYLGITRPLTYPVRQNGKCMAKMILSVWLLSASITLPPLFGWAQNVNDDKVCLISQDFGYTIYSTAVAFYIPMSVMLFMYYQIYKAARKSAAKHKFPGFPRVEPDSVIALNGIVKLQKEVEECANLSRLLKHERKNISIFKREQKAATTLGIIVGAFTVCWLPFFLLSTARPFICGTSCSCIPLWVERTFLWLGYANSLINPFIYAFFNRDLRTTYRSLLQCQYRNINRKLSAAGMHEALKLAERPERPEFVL

Solved cases below.
compoundStructureString: CCn1cncc1-c1c(C)[nH]c2ccc(OC)cc12
testTarget: human serotonin 5-HT7bR (Homo sapiens, UniProt P34969)
assayValue: > 10 µM
--
compoundStructureString: COc1ccc(-c2c([N+](=O)[O-])ncn2C)cc1
testTarget: human serotonin 5-HT7bR (Homo sapiens, UniProt P34969)
assayValue: > 10 µM
--
compoundStructureString: COc1cccc(-c2cncn2C)c1
testTarget: human serotonin 5-HT7bR (Homo sapiens, UniProt P34969)
assayValue: > 10 µM
--
compoundStructureString: CCn1cncc1-c1c[nH]c2cc(Br)ccc12
testTarget: human serotonin 5-HT7bR (Homo sapiens, UniProt P34969)
assayValue: > 10 µM
--
compoundStructureString: COc1cc(-c2cncn2C)c(OC)cc1I
testTarget: human serotonin 5-HT7bR (Homo sapiens, UniProt P34969)
assayValue: > 10 µM

response.value for `Cn1cncc1-c1ccccc1` (field: Ki) = > 10 µM

###

biological target: human serotonin 5-HT2A receptor (Homo sapiens, UniProt P28223); construct: host or cells: CHO-K1; test: Radioligand binding, [3H]-ketanserin displacement; conditions: Fig. 2; read-out: pKi 5-HT2A (converted)
Sequence (P28223 whole entry): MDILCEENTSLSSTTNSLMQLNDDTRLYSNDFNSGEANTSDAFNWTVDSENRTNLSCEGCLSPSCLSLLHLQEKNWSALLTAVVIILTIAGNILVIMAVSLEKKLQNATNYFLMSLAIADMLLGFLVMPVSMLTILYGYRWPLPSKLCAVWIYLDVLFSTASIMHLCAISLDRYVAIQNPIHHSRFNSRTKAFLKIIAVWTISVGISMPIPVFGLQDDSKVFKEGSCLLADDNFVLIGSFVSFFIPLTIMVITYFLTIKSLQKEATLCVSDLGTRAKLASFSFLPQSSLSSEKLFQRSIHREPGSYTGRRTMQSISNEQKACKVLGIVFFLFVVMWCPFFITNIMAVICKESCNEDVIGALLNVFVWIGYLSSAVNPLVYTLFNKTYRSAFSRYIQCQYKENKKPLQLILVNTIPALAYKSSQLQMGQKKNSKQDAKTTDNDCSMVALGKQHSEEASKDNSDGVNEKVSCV
reportedEndpoint: Ki (µM)
Quick note: give the figure in µM, leave out the unit.

compound: COc1ccc2[nH]cc(-c3cnc[nH]3)c2c1 [1x]
assayValue: 7.94

response.value for CCCCn1cncc1-c1c[nH]c2ccc(OC)cc12 [1g] (field: Ki) = 6.17

Entry source: paper PMC5431432
